Quantity Measured: melting point

Below are worked cases with known answers.
compound=COC(=O)c1cc2scc(Br)c2nc1C(=O)OC val="165 to 168 °C"
compound=Cc1cccc2cc3c(=O)n([C@@H](C)c4ccccc4)cc(C(=O)O)c3nc12 val="234 to 235 °C"
compound=O=C(Nc1ccc(F)cc1F)C(=O)c1c2n(c3ccccc13)CCNCC2 val="184 to 186 °C"
compound=O=C(Nc1ccccc1C(=O)O)OCc1ccccn1 val="172 to 175 °C"
compound="COc1ccc(OCCCBr)c(C2Sc3ccccc3N(C)C2=O)c1 (single isomer, unassigned; (-))" val="77 to 78 °C"

Please find the next compound below.
Lab note: `Oc1ccc2[nH]cc(C3=CCN(Cc4ccccc4)CC3)c2c1` gave melting point of 223 to 227 °C

---

Listed here are compounds together with their documented melting point.

test_smiles=C=CCN(CCC)S(=O)(=O)NC(=O)c1cc(N)c(F)cc1Cl val="104 to 106 °C"
test_smiles=O=C(Nc1cccc2c(NN3C(=O)CCC3=O)ccnc12)c1c(Cl)cccc1Cl val="170 to 173 °C"

compound `Nc1sccc1C(=O)c1ccccc1` , melting point observed: 150 to 152 °C

---

Quantity Measured: melting point

test_smiles=CCNC(=O)Nc1ccc(-c2sc3c(c2CN(C)CCC(=O)NCCOC)c(=O)n(-c2ccccc2)c(=O)n3Cc2c(F)cccc2F)cc1 val="240 to 244 °C"
test_smiles=O=c1[nH]c2cc(Cl)ccc2c(NCc2ccccc2)c1-c1ccccc1 val="179 °C"

Form: molecule = `CCCCCCC1(CCCCCC)c2cc(Cl)ccc2-c2ccc(Cl)cc21` ; melting point = 66 to 67 °C

---

Measured melting point accompanies every entry in the list below.

compound=COc1cc2c(cc1OC(C)C)-c1cc3c(n1CC2)C(=O)N(C(C)(C)C)CCOC3 val="125 to 127 °C"
compound=NS(=O)(=O)c1ccccc1CCl val="156 to 158 °C"
compound=CC(=O)NCCNc1cccc(-c2cc(-c3ccc(F)cc3O)nc(NC(=O)c3ccco3)c2C#N)c1 val="158 to 160 °C"
compound=CCOC(=O)COc1c2ccccc2cc2c1c(C(=O)C(N)=O)c(CC)n2Cc1ccccc1 val="130 to 131 °C"
compound=COC(=O)CS(=O)(=O)CCCCN(c1cnc(-c2ccccc2)c(-c2ccccc2)n1)C(C)C val="123 to 125 °C"

API: the following record is the query input.
So for `OC[C@H](O)CSc1ccccc1` , the logged melting point turned out to be 79 to 81 °C

---

# melting point per entry

// below: answered compounds
compound=CN1CC=C(c2c[nH]c3ccc(NC(=O)c4ccc(Cl)cc4)cc23)CC1 val="224 to 226 °C"
compound=CC(/C=C/c1sccc1-c1ccc2c(c1)C(C)(C)CCC2(C)C)=C\C(=O)O val="188 to 189 °C"
compound="CC1(CNC(=O)OCc2ccc(Cl)cc2)Cn2cc([N+](=O)[O-])nc2O1 (centres undefined)" val="221 to 222 °C"
compound=CN(c1cccc2cc(-c3ncc(CCC(=O)NS(C)(=O)=O)s3)[nH]c12)S(=O)(=O)c1cccs1 val="217 to 218 °C"
compound=Cc1cc(Nc2ccccc2C(=O)O)n(-c2ccccn2)n1 val="190 to 193 °C"
compound=CCOC(=O)c1cn(C2CC2)c2c(OC(F)F)c(F)c(F)c(N)c2c1=O val="295 to 296 °C"
compound=CCC(CC)c1ccc(Cl)c2nc(Nc3c(C)noc3C)n(CCCCO)c12 val="150 to 155 °C"
compound=Cc1nc2ccc(CN(CCO)c3ccc(C(=O)NCc4cccc([N+](=O)[O-])c4)cc3)cc2c(=O)[nH]1 val="230 to 232 °C"

Then there is this compound:
Query CCOC(=O)C(Oc1ccccc1)c1ccccc1 (centres undefined) yields melting point of 45 °C

---

compounds and their reported melting point

Field: example entries. Status: answers known.
compound=OCCc1ccc(OCc2ccc(Cl)cc2Cl)cc1 val="55 °C"
compound=CCCCc1n[nH]c(C(=O)OC)c1Cc1ccc(-c2ccccc2-c2nc(=O)s[nH]2)cc1 val="171 to 172 °C"
compound="COc1ccc(C(N)CC(=O)O)cc1OC (stereo not drawn)" val="208 to 210 °C"
compound=CCCCc1c(C)cc(C)cc1O val="65 to 67 °C"
compound=CCN(CC)c1ccc(C=O)c(OCCN2CCCCC2)c1 val="70 to 72 °C"
compound=CCCCc1ccc(NC=C(C#N)C(=O)OCC)nc1 val="69 to 73 °C"
compound=CCCCSc1nsnc1O val="72 to 72.5 °C"

// next entry
Reported melting point ( `CC(C)=NNc1cc2c(nn1)CCN(C(=O)CC(c1ccccc1)c1ccccc1)C2` ) = 172 to 175 °C

---

Quantity Measured: melting point

Study these solved cases before continuing.
compound=O=C1CCC2(CC2)C(=O)C1 quantity_measured="melting point" val="116 to 118 °C"
compound="O=C(C=Cc1ccccc1)N1CCc2c([nH]c3ccccc23)C12CCC(c1cccc(F)c1)(N1CCC1)CC2 (stereo not given)" quantity_measured="melting point" val="120 to 126 °C"
compound="COc1ccccc1N1CCN(CC(O)COc2cc(C)c(OCc3ccccc3)c(C)c2)CC1 (stereo not given)" quantity_measured="melting point" val="93 to 94 °C"

response.value for `CC(=O)Nc1c(C(=O)c2cnccn2)[nH]c2cc(Cl)ccc12` (field: melting point) = 269 to 271 °C

The compound listed as `ONCc1ccc(N2CCC3(CC2)OCCO3)cc1` shows melting point equal to 107 to 109 °C

The value of melting point measured for the compound OCC1OC(n2cnc3c(Nn4cccc4)ncnc32)C(O)C1O (stereo not given) turned out to be 193 to 195 °C

---

Quantity Measured: melting point

Memo: `CCOCCCOc1ccc(-c2ccc3c(c2)C=C(C(=O)OC)CCN3C(=O)OC(C)(C)C)cc1` , reported melting point: 125 to 128 °C

melting point for `CCOC(=O)C=Cc1cc(C(C)=O)ccc1OC` is 90 °C

Entry `Cn1c2ccccc2c2c3c(ccc21)C(=O)OC3=O` , melting point reported as 153 °C

melting point in this record for `CCOC(=O)/C=C/c1cc(OCc2cn(-c3ccc(C(F)(F)F)cn3)nc2C(C)C)nn1C` : 105 to 106 °C

Reported melting point ( `C[C@@H](n1ncn(-c2ccc(O)cc2)c1=O)[C@](O)(Cn1cncn1)c1ccc(F)cc1F` ) = 242 °C

---

melting point by entry:

molecule=O=[N+]([O-])c1cn(-c2cccnc2)nc1F val="139 to 141 °C"

Lab book: melting point of CC1(C)CCC(C)(C)c2cc(C(O)C3CCCCC3C(=O)O)ccc21 (stereo not drawn) noted as 186 °C

Sure, the documented melting point for `Cc1nc(N2CCN(c3ccccc3)C2=O)sc1C(=O)O` is 286 to 289 °C

---

Readings of melting point for the listed molecules

test_smiles=O=C(Nc1nnn[nH]1)c1ccccc1O val="264 to 266 °C"
test_smiles=Cc1cc(-c2nc3ccc(CN4CCOCC4)cc3c(=O)[nH]2)ccn1 val="267 to 268 °C"
test_smiles=CCN1C(=O)N(c2ccc(C#N)c(C(F)(F)F)c2)C(=O)C1(CF)CF val="129 to 130 °C"
test_smiles=Nc1ccc(S(=O)(=O)n2cc(CC3CCNCC3)c3cc(F)ccc32)cc1 val="162 to 164 °C"
test_smiles=CS(=O)(=O)Nc1nc(-c2ccc(NS(C)(=O)=O)c(Sc3ccc(F)cc3F)c2)cs1 val="159 to 161 °C"

GET /value?item= `CCCCCSC1=C(SCCCCC)SC(=C2SC3=C(CN(S(=O)(=O)c4ccc(C)cc4)C3)S2)S1` &field=melting point returns 136 to 137 °C

Value of melting point reported for the molecule `N#Cc1ccc(/C=C/S(=O)(=O)CS(=O)(=O)/C=C/c2ccc(C#N)cc2F)c(F)c1` is 268 to 270 °C

Briefly, melting point measured for `COc1ccc(/C=C2/c3cc(OC)c(OC)cc3CCN2C(=O)C2CC2)cc1OC` : 148 to 151 °C

For `CS(=O)(=O)N1CCC(Nc2nc(CCC(F)(F)F)nc(Nc3ccc(F)c(Cl)c3)n2)CC1` the molecule record lists melting point as 192 to 193 °C

---

Quantity Measured: melting point

compound="O=C(O)C1CCc2cc(Cl)c(C3CCCCC3)cc21 (stereo not given)" quantity_measured="melting point" val="140 to 143 °C"
compound=Cc1cc(C)c(N)cn1 quantity_measured="melting point" val="62 to 64 °C"

The reported melting point of the compound `C(#Cc1ccccn1)CCc1nc(-c2ccc3ccccc3c2)no1` was 76 to 78 °C

So for `NCCCCc1ccc(C2=NNC(=O)CC2)cc1` , the logged melting point turned out to be 167 to 168 °C

Per the records, this compound ( `O=C(Nc1cccnn1)N1CCN(c2nccc(-c3cccc(F)c3F)n2)CC1` ) has melting point equal to 248 to 249 °C
